Measured values drawn from PubChem BioAssay (NCI) for this set.

protocol description: NCI Yeast Anticancer Drug Screen. Data for the cln2 rad14 strain (AID 165);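 further: 0% = growth equal to vehicle treated cultures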
test parameters: S. cerevisiae cln2 rad14 strain, hits give high values; at 50.0 µM unless noted
This is part of a sample that, as a whole, favours compounds with a hit. Of some 79,000 tested, about 15% had one in any assay.
What growth inhibition was measured for each of the following?
Numbers only, in %.

Consider the reported growth inhibition for these molecules:
{"molecule": "CC1OC(Cl)CC(NC(=O)C(F)(F)F)C1OC(=O)C(F)(F)F (stereo not given)", "assay readout": "growth inhibition", "unit abbrev": "%", "reported measurement": -17.8}
{"molecule": "CN(C)C(C)(CO)CO", "assay readout": "growth inhibition", "unit abbrev": "%", "reported measurement": 6.45}
{"molecule": "Clc1cccc(Cl)c1C1SCc2nc3cc4ccccc4cc3n21 (stereo not given)", "assay readout": "growth inhibition", "unit abbrev": "%", "reported measurement": -0.55}
{"molecule": "C=C(C)CC(=O)O.CC(=O)[CH-]C(C)=O.CC(=O)[CH-]C(C)=O.CC(=O)[CH-]C(C)=O.[Zn+2].[Zn]", "assay readout": "growth inhibition", "unit abbrev": "%", "reported measurement": 6.8}
{"molecule": "OC1(c2nccc3ccccc23)CCN(CCc2ccccc2)CC1", "assay readout": "growth inhibition", "unit abbrev": "%", "reported measurement": 40.5}

Batch lookup, growth inhibition per entry.
1. COc1ccccc1C(=O)N/N=C/c1cccc([N+](=O)[O-])c1
2. CC(C)(C)OC(=O)NCC(=O)NC1C/C(=N\O)c2sccc21 (stereo not given)
3. CCCCCCCCCCCCSC(=S)c1c(C)[nH]n(CCCCCCCCCCCC)c1=O
4. COc1ccc(C=C(C(=O)O)C(=O)O)cc1
5. CC1=C(C)C(C#N)(C(=O)CBr)C(=N)O1 (stereo not given)
6. COC(=O)c1cc2c(cc1/C=C/C=O)OCO2

Reply |
1: -11.7; 2: 15.6; 3: 26.2; 4: 17.8; 5: 0; 6: -27.9
